// provenance: patent US20240417436A1

# Target desc: T1, IL-2 receptor βγ complex on pan T cells (human, UniProt P14784 27-551; P31785 23-369)
# T1 sequence (looked up) 1: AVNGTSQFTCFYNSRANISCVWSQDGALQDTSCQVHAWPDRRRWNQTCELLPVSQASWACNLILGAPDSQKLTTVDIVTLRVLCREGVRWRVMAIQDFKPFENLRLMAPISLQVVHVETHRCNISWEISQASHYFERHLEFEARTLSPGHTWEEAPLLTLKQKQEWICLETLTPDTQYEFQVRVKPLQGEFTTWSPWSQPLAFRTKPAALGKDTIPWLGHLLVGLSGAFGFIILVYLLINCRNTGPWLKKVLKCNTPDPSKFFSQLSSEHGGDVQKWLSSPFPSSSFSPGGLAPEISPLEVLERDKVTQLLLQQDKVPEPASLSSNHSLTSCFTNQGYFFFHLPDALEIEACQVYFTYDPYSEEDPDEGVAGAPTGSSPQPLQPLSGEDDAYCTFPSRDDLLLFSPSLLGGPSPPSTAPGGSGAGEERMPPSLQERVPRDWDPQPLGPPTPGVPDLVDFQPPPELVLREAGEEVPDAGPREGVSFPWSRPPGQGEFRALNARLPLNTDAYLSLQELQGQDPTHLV
# T1 sequence (looked up) 2: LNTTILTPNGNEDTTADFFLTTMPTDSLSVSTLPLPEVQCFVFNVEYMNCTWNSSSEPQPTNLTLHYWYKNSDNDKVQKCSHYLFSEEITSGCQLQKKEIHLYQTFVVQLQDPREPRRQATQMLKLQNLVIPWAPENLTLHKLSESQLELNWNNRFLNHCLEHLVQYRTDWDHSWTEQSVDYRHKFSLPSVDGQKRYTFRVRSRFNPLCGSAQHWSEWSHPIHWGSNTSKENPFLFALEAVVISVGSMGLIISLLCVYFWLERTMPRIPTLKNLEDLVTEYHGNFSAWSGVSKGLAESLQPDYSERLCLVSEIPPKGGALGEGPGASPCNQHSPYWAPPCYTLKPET
# Method: cell-based or functional assay
Primed or numbered codes have the meaning given here. [ ]: non-standard residue; d: D form. Ygp″ = O-(PEG8-amino)-tyrosine (O-(8x polyethylene glycol-amino)-tyrosine); Yn3″ = O-(PEG9-azido)-tyrosine (O-(9x polyethylene glycol-azido)-tyrosine); Ygp = O-(8x polyethylene glycol-amino)-tyrosine; Yn3 = O-(9x polyethylene glycol-azido)-tyrosine; hSer = N[C@@H](CCO)C(=O)O; Nle = CCCC[C@H](N)C(=O)O
Measured parameter: Average EC50, pSTAT5 assay in pan T cells, MMP2 cleaved molecule (nM)
Numbers only, in nM.

CMP-142, MMP2 cleaved (ligand, not fully specified (residue 23); ends and bridges not checked; also: MMP2-cut remnant of cleavable moiety on Lys23 side chain, not given here) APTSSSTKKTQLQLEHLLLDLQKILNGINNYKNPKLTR[Nle]L[hSer][Yn3]KF[Ygp][Nle]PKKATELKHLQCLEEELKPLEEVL[hSer]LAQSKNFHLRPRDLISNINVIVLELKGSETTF[hSer]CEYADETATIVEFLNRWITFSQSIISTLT :: 0.56

Quick batch: Average EC50, pSTAT5 assay in pan T cells, MMP2 cleaved molecule for everything below.
1. CMP-148, MMP2 cleaved (ligand, not fully specified (residue 15); ends and bridges not checked; also: MMP2-cut remnant of cleavable moiety on Lys15 side chain, not given here) APTSSSTKKTQLQLKHLLLDLQ[Nle]ILNGINNYKNPKLTR[Nle]L[hSer][Yn3]KF[Ygp][Nle]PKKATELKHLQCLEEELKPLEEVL[hSer]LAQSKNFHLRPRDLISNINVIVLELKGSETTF[hSer]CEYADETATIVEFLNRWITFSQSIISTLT
2. CMP-125, MMP2 cleaved (ligand, ends and bridges not checked; also: cleavable moiety on Lys23 side chain, not given here) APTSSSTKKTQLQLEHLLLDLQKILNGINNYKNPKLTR[Nle]L[hSer][Yn3″]KF[Ygp″][Nle]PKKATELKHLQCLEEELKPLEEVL[hSer]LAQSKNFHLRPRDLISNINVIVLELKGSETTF[hSer]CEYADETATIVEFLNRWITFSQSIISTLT
3. CMP-129, MMP2 cleaved (ligand, ends and bridges not checked; also: Lys23 side chain attached via PEG9 to cleavable peptide, MMP2-cleaved, remnant stays attached, cut site not given here) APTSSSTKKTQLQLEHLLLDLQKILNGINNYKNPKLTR[Nle]L[hSer][Yn3″]KF[Ygp″][Nle]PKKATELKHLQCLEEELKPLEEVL[hSer]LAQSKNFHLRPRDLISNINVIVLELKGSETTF[hSer]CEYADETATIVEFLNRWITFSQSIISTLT

Key:
0.95
1.73
1.4
